This collection of values is drawn from ChEMBL document CHEMBL1201862.

# System: U-251
# assay procedure: NCI tumour cell line growth inhibition, 48 h
The source made the active and inactive calls. No stated cut-off is given here; in the data, active = GI50 up to about 1.1 µM and inactive = higher.

- compound: "CC(C)=CCCc1c(C)ccc2c1C(=O)C(=O)C(C(C)C)=C2"
  GI50: "> 22 µM (inactive)"
- compound: "COc1cccc(C2SCC(=O)N2c2ccc(-n3c(-c4ccccc4)nc4ccccc4c3=O)cc2)c1OC (stereo not given)"
  GI50: "> 100 µM (inactive)"
- compound: "O=C(Nc1ccc(Cl)cc1C(=O)O)c1ccc([N+](=O)[O-])cc1"
  GI50: "18.8 µM (inactive)"
- compound: "COc1cc2oc(-c3ccc(O)cc3)cc(=O)c2c(O)c1C1OC(CO)C(O)C(O)C1O (stereo not given)"
  GI50: "> 100 µM (inactive)"
- compound: "O=C(Cc1ccccc1)NN1C(=O)/C(=C\\c2ccc(O)cc2)S/C1=N\\c1ccccc1"
  GI50: "> 100 µM (inactive)"

---

# System: UACC-62
# assay procedure: NCI tumour cell line growth inhibition, 48 h
Calls of active or inactive are those of the source. Cut-off read from the data, not from the text of the source: active = GI50 up to about 1.1 µM and inactive = higher.
measured endpoint: GI50

- smiles: "CSc1nc(-c2ccccc2)nc(C(C#N)C#N)n1"
  measured endpoint: "GI50"
  value: "> 100 µM (inactive)"
- smiles: "O=C(/C=C/c1ccccc1)c1ccc(Cl)cc1Cl"
  measured endpoint: "GI50"
  value: "15.9 µM (inactive)"
- smiles: "Cc1cc2c3ccccc3n(C)c2c2c1C(=O)c1ccccc1C2=O"
  measured endpoint: "GI50"
  value: "20.8 µM (inactive)"
- smiles: "C[N+]1(C)C/C(=C\\c2ccncc2)C(=O)/C(=C/c2ccncc2)C1"
  measured endpoint: "GI50"
  value: "> 100 µM (inactive)"
- smiles: "Cn1c(=O)c2c(nc(Cc3ccccc3)n2CC(=O)O)n(C)c1=O"
  measured endpoint: "GI50"
  value: "> 100 µM (inactive)"
- smiles: "CC(C)(C)C1=CC(C)(n2[nH]c(=O)n(-c3ccccc3)c2=O)C=C(C(C)(C)C)C1=O"
  measured endpoint: "GI50"
  value: "75.3 µM (inactive)"

---

# System: CCRF-CEM
# assay procedure: NCI tumour cell line growth inhibition, 48 h
Calls of active or inactive are those of the source. Cut-off read from the data, not from the text of the source: active = GI50 up to about 1.1 µM and inactive = higher.
Entries and their GI50
measured endpoint: GI50

- compound: "c1ccc(CCN(Cc2nc3ccccc3[nH]2)Cc2nc3ccccc3[nH]2)cc1"
  value: "3.39 µM (inactive)"
- compound: "CCC(Cc1cnc2nc(N)nc(N)c2n1)c1ccc(C(=O)NC(CCC(=O)O)C(=O)O)cc1 (configuration not stated)"
  value: "< 0.0001 µM (active)"
- compound: "C=C(C)C1CC[C@]2(C(=O)O)CCC3(C)[C@H](CCC4[C@@]5(C)CC[C@H](OC6OC(CO)C(O)C6OC6OC(C)C(O)C(O)C6O)[C@@](C)(CO)C5CC[C@]43C)C12 (some centres not stated)"
  value: "> 100 µM (inactive)"
- compound: "CN(C)c1ccc(/C=C(\\NC(=O)c2ccccc2)C(=O)Nc2ccccc2C(=O)NCc2ccccc2)cc1"
  value: "62.4 µM (inactive)"
- compound: "CN(C)Cc1cc(C(=O)/C=C/c2cccc(Cl)c2)cc(CN(C)C)c1O"
  value: "2.07 µM (inactive)"
- compound: "COC(=O)C(NC(=O)CNC(=O)CSc1nnc(COc2ccc(Cl)cc2)n1-c1ccccc1)C(C)C (configuration not stated)"
  value: "21.7 µM (inactive)"
- compound: "OCc1ccccc1C1CSCSC1"
  value: "> 100 µM (inactive)"
- compound: "CC(=O)/N=C1\\NC(=O)/C(=C/c2ccc(Cl)cc2Cl)N1C"
  value: "3.44 µM (inactive)"
- compound: "N=C(N)NC(=N)Nc1ccc(S(N)(=O)=O)cc1"
  value: "> 100 µM (inactive)"
- compound: "COc1cc2oc(-c3ccc(O)cc3)cc(=O)c2c(O)c1C1OC(CO)C(O)C(O)C1O (configuration not stated)"
  value: "> 100 µM (inactive)"
- compound: "CC1=NN(c2cccc(S(=O)(=O)O)c2)C2(C1)C(Cl)C(=O)N2c1nc2ccccc2s1 (configuration not stated)"
  value: "1.26 µM (inactive)"
- compound: "CN(/N=C/c1ccnc2ccccc12)c1ccc([N+](=O)[O-])cc1[N+](=O)[O-]"
  value: "> 100 µM (inactive)"
- compound: "C=CCCCCn1c2ccccc2c2c(C)c3cnccc3c(C)c21"
  value: "4.04 µM (inactive)"
- compound: "CC(C)c1ccc(/C=C(\\NC(=O)c2ccccc2)c2nc3ccccc3[nH]2)cc1"
  value: "34.1 µM (inactive)"
- compound: "CCOC(=O)C(=O)Nc1ccccc1CC"
  value: "> 100 µM (inactive)"
- compound: "O=C(CSCC(=O)N/N=C\\c1cccc([N+](=O)[O-])c1)N/N=C\\c1cccc([N+](=O)[O-])c1"
  value: "> 100 µM (inactive)"
- compound: "O=P(O)(O)CN1CCN(CP(=O)(O)O)CCN(CP(=O)(O)O)CCN(CP(=O)(O)O)CC1"
  value: "44.9 µM (inactive)"
- compound: "CCOC(=O)c1ccc(-c2cccs2)[nH]1"
  value: "> 81.3 µM (inactive)"
- compound: "Cc1cc2nnc(C(N)=O)c(N)c2cc1C"
  value: "> 100 µM (inactive)"
- compound: "Nc1nc(Cl)c(C=O)c(NCC2(CO)CCC2)n1"
  value: "12.9 µM (inactive)"
- compound: "O=C1c2ccc(O)cc2C(=O)c2ccc(O)cc21"
  value: "59.3 µM (inactive)"
- compound: "COc1ccc2[nH]cc(C=C3C(=O)NC(=S)NC3=O)c2c1"
  value: "71.8 µM (inactive)"
- compound: "COC1CC(OS(=O)(=O)c2ccc(C)cc2)C(OC(=O)c2ccccc2)C(C)O1 (configuration not stated)"
  value: "> 10 µM (inactive)"
- compound: "CC1(c2nc3ccccc3[nH]2)CCC(CO)C(C)(C)O1 (configuration not stated)"
  value: "> 100 µM (inactive)"
- compound: "CC(=O)Oc1cccc2c(/C=N/NC(N)=S)ncc(C)c12"
  value: "0.422 µM (active)"
- compound: "c1ccc(C2C3=C(Nc4ncnn42)c2ccccc2C3)cc1 (configuration not stated)"
  value: "15.5 µM (inactive)"
- compound: "CC(C)=CCc1ccc2[nH]c3c(c2c1)C(=O)C(=O)C(C)=C3C(O)C(C)O (configuration not stated)"
  value: "1.55 µM (inactive)"
- compound: "O=C(C(Cl)=C(N1CCCCC1)N1CCCCC1)C(Cl)Cl"
  value: "> 100 µM (inactive)"
- compound: "C/C(CN1C(=O)c2ccccc2C1=O)=N\\NS(=O)(=O)c1ccc(F)cc1"
  value: "> 100 µM (inactive)"
- compound: "Cc1[nH]n(C(=N)N)c(=O)c1CCO"
  value: "> 100 µM (inactive)"
- compound: "CCOC(=O)c1c(C(F)(F)F)oc2c1ccc1nc3nonc3nc12"
  value: "1.91 µM (inactive)"
- compound: "CC(=O)OC1CC2c3cccc4c3C(CC2N(C)C1=O)CN4C(=O)c1ccccc1 (configuration not stated)"
  value: "20.7 µM (inactive)"
- compound: "Nc1nc(Cl)cc(NCC2(CO)COC2)n1"
  value: "> 100 µM (inactive)"
- compound: "Brc1cccc[n+]1-c1ccc2cc(-[n+]3ccccc3Br)ccc2c1"
  value: "34.1 µM (inactive)"
- compound: "COC(=O)C(C(=O)C(=O)Nc1c(Cl)cc([N+](=O)[O-])cc1Cl)c1nc2cc(C)c(C)cc2nc1O (configuration not stated)"
  value: "> 100 µM (inactive)"
- compound: "C1OCC2S[C@@H]3COCO[C@@H]3C2O1 (some centres not stated)"
  value: "> 100 µM (inactive)"
- compound: "C[C@]12CC[C@H]3[C@@H](CCC4=CC(=O)C=C[C@@]43OC(=O)C(F)(F)F)[C@@H]1CCC2=O"
  value: "> 100 µM (inactive)"
- compound: "O=C1C2=Cc3ccccc3OC2(O)Oc2ccccc21 (configuration not stated)"
  value: "> 100 µM (inactive)"
- compound: "CC(=O)c1c(O)c(C)c(O)c(Cc2c(O)c3c(c(C(=O)/C=C/c4ccccc4)c2O)OC(C)(C)C=C3)c1O [ROTTLERIN]"
  value: "2.99 µM (inactive)"
- compound: "CC(=O)OC1[C@H]2c3cc4c(cc3CN3CCC(=C[C@@H]1O)C23)OCO4 (some centres not stated)"
  value: "> 100 µM (inactive)"
- compound: "O=C(CC(C(=O)c1cccs1)c1cccs1)c1ccsc1 (configuration not stated)"
  value: "37.9 µM (inactive)"
- compound: "COc1cccc(Nc2nc(-c3cccs3)nc3ccc(Br)cc23)c1"
  value: "0.0101 µM (active)"

---

# Tested on: OVCAR-5
# assay procedure: NCI tumour cell line growth inhibition, 48 h
Calls of active or inactive are those of the source. Cut-off read from the data, not from the text of the source: active = GI50 up to about 1.1 µM and inactive = higher.
Entries and their GI50
measured endpoint: GI50

- molecule: "O=C(/C=C/c1c(O)nc2ccccc2c1O)CC(=O)C(=O)Nc1cccc(O)c1"
  value: "> 100 µM (inactive)"
- molecule: "CCCCCCC1CC(=O)C1(Cl)Cl (stereo not drawn)"
  value: "> 100 µM (inactive)"
- molecule: "CCOC(=O)C1(Cc2ccccc2)Cc2cc3c(cc2C1)CCC3"
  value: "25.2 µM (inactive)"
